System: MDA-MB-231 human breast cancer cells
ASSAY NAME: Cell proliferation assay (CellTiter-Glo, 72 hours treatment)
Assay type: cell-based
CONDITION DESCRIPTION: Homo sapiens; MDA-MB-231 cells, 72 hours at 37° C., CellTiter-Glo; read-out: MDA-MB-231 cell proliferation assay (IC50)
pIC50: −log10 of the molar value.
PROPERTY MEASURED: pIC50

Data request: Request the reported pIC50 associated with COc1cncc2c1[C@]1(O)[C@H](O)[C@H](CNC3COC3)[C@@H](c3ccccc3)[C@]1(c1ccc(C#N)cc1)O2 (racemic) [240F]
Data returned: 6.00 to 7.00

Data request: Request the reported pIC50 associated with O[C@@]12C=C[C@@H](c3ccccc3)[C@]1(c1ccc(Br)cc1)Oc1cc(Cl)cnc12 (racemic) [133F]
Data returned: < 6.00

Data request: Request the reported pIC50 associated with CS(=O)(=O)[C@H]1[C@@H](O)[C@@]2(O)c3ncc(Cl)cc3O[C@@]2(c2ccc(Br)cc2)[C@@H]1c1ccccc1 (racemic) [84F]
Data returned: < 6.00

Data request: Request the reported pIC50 associated with COc1nc(Cl)cc2c1[C@]1(O)[C@H](O)[C@H](CN(C)C)[C@@H](c3ccccc3)[C@]1(c1ccc(C#N)cc1)O2 (single isomer, unassigned) [140F]
Data returned: > 7.00

Data request: Request the reported pIC50 associated with COc1ccc([C@@]23Oc4cc(Cl)cnc4[C@]2(O)[C@H](O)[C@H](C(=O)N(C)C)[C@H]3c2ccccc2)cc1 (single isomer, unassigned)
Data returned: 6.00 to 7.00

Data request: Request the reported pIC50 associated with COc1cncc2c1[C@]1(O)[C@@H](CNC3COC3)[C@H](CO)[C@@H](c3ccccc3)[C@]1(c1ccc(Br)cc1)O2 (racemic) [185F]
Data returned: > 7.00

----------
Test system: MDA-MB-231 human breast cancer cells
ASSAY NAME: Cell proliferation assay (CellTiter-Glo, 72 hours treatment)
Type: cell-based
CONDITION DESCRIPTION: Homo sapiens; MDA-MB-231 cells, 72 hours at 37° C., CellTiter-Glo; read-out: MDA-MB-231 cell proliferation assay (IC50)
Reported IC50 values for a set of molecules

The following molecules have reported results that may help.
COC(=O)[C@H]1[C@@H](O)[C@@]2(O)c3nn(C)cc3O[C@@]2(c2ccc(C#N)cc2)[C@@H]1c1ccccc1 (racemic) [21F] : > 1000 nM
COCCN(C)C(=O)[C@H]1[C@@H](O)[C@@]2(O)c3c(OC)cncc3O[C@@]2(c2ccc(Br)cc2)[C@@H]1c1ccccc1 (racemic) [260F] : < 100 nM
COc1nc(C#N)cc2c1[C@]1(O)[C@H](O)[C@H](CN(C)C)[C@@H](c3ccccc3)[C@]1(c1ccc(C(F)F)cc1)O2 (racemic) [146F] : < 100 nM
COc1cc2c(c(OC)n1)[C@]1(O)[C@H](O)[C@H](CN(C)C)[C@@H](c3ccccc3)[C@]1(c1ccc(Br)cc1)O2 (racemic) [230F] : < 100 nM
CN(Cc1ccccc1)S(=O)(=O)[C@H]1[C@@H](O)[C@@]2(O)c3ncc(Cl)cc3O[C@@]2(c2ccc(Br)cc2)[C@@H]1c1ccccc1 (racemic) [123F] : 100 to 1000 nM

Next molecule, please.
Data request: Request the reported IC50 associated with O[C@@H]1C[C@@H](c2ccccc2)[C@]2(c3ccc(Br)cc3)Oc3cc(Cl)cnc3[C@]12O (racemic) [127F]
Data returned: 100 to 1000 nM
